Assay: protein stability index of a GFP-peptide fusion (GPS, HEK-293T) (PSI 1-6); higher = more stable;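 further: 24-mer peptide tiles fused after GFP, lentivirally expressed, FACS-sorted into six equal bins by GFP/DsRed ratio, decoded by Illumina sequencing, PSI is the read-weighted mean bin number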
Settings: treatment: MLN4924 1 uM, 8 h; c terminus: a fixed tail appended
Please assign a class to every record based on measured protein stability index, with ranges band A: < 3; band B: ≥ 3 and < 4; band C: ≥ 4

Example cases with answers are listed next.
INSERT INTO measurements (polymer_sequence, label) VALUES
  ('YVRPERLSPISHGNTIALFFRSLL [TCF25]', 'band A'),
  ('NILIYETPRGPDPALLEATGGAAG [KCTD13]', 'band B'),
  ('VCQRMLNQGFLKVERYHNLCQKQV [FBXO28]', 'band A'),
  ('RCPVTVCGDVHGQFHDLMELFRIG [PPP2CA]', 'band A'),
  ('QHSHVVRYFSAWAEDDHMLIQNEY [WEE1]', 'band A'),
  ('IAPVLKLASHHNHFSQIVIFMLCT [OR10K2]', 'band B');

For KLAKVYSYAHGWMFQGWNCGDYFP [CPN1] , which protein stability index bin applies?
band A

Which class holds IGVGLGFELQRLEFDLSPLNLDIG [AASDHPPT] ?
band A

Category of TEPPVALAPGPAPTRCLPGHKEEE [ESRRA] , please.
band C

Class (by measured protein stability index) for MELLCHEVDPVRRAVRDRNLLRDD [CCND2]
band C

Dear colleague, I would appreciate it if you could identify the bin for PKDIAKLVPKTHLMSESEWRNLGV [CKS1B] and reply at your convenience.
band A

Which bin, given its protein stability index, does KGRTIYLEDIYVMPEYRGQGIGSK [SAT2] occupy?
band A

Bin this entry: YENCLQALADVEVKYIVERTMLDF [NLN]
band A

Please let me know in which category the item ERSRDVVDEVSVSLRLWDTFGDHH [RHOBTB1] belongs.
band B

Would you mind sorting QSMSQTRELLLDGGYLQRTTYDRR [RSPH3] into the appropriate category?
band B

Sort into band: QVIHPQEFRRWRDTGVAFELRDSS [DNAAF3]
band B

Determine which band this sequence sits in: KEDQFGRTPLMYCVLADRLDCADA [INVS]
band B

GET /class?item= TVGVYEAAKLLNVDPDNVVLCLLA [GADD45A]
band A

----------
Assay: protein stability index of a GFP-peptide fusion (GPS, HEK-293T) (PSI 1-6); higher = more stable
Conditions: treatment: DMSO; c terminus: a fixed tail appended
// reported protein stability index for each item listed
Enter a number only.

INSERT INTO assay_data (polymer_sequence, observed_property, readout_number) VALUES
  ('LEIELQSQLSMKASLENSLEETKG [KRT16]', 'protein stability index', 5.28),
  ('QEMQQKLVELSAENEKLHQRVEQL [CEBPD]', 'protein stability index', 4.84),
  ('GPGTPTGPSLPSKRESPGVGGGSG [ZBTB22]', 'protein stability index', 5.14),
  ('IGVGLGFELQRLEFDLSPLNLDIG [AASDHPPT]', 'protein stability index', 2.3),
  ('EDPEENPYGPPPDAVQTSLMDEGA [RBBP5]', 'protein stability index', 5.56),
  ('SFPATLETQEQDVDLVQKYLEKYY [MMP1]', 'protein stability index', 3.82),
  ('RLQCPFEQELLRRQQRLNQLEKPP [FAM107A]', 'protein stability index', 3.93),
  ('QSMSQTRELLLDGGYLQRTTYDRR [RSPH3]', 'protein stability index', 3.85),
  ('LMTCEMLNRRNGSLRIALSEHLKQ [EDNRA]', 'protein stability index', 2.71),
  ('ASLHTLLGDPCPMLESPGAPCRSA [HDAC6]', 'protein stability index', 3.62);

Entry under review: NHLQTHDPNKMAFGCEECGKKYNT [PLAGL1] . Reported protein stability index?
4.14

Entry ADISEAEQRTIQAQKESLQNQHHS [APBB1IP] : reported protein stability index = ?
5.2

Requested field: protein stability index. Item: SLIEDLQRELEIPEQQVDMHDMLL [ZNF449]
3.56

Consider the sequence DHSSRELSKILAKLERLKQQNEDL [FUT8] and give its measured protein stability index.
3.89

Any idea what its protein stability index is? The sequence is TFASLIGPFGGFFASGFKRAFKIK [CDS1]
2.66

Entry QLDALPFFVITMIKIVLINSFGAI [SLC29A1] : reported protein stability index = ?
2.96

So what does the record say about protein stability index for MENLPGLASGPGKYMPHLCQDSSG ?
4.05

So what does the record say about protein stability index for IIYVASNHFVWRLIPVPMATQIQQ [VPS39] ?
3.19

Quick one: protein stability index of RRVGGSRILLRMTLGREVMSPLQA [NLN] ?
2.15

Record request: protein stability index value, item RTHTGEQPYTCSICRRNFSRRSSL [ZNF75A]
3.19

So what does the record say about protein stability index for KIEGHQDAVTAALLIPKEDGVITA [WDFY1] ?
4.35

Requested read-out: protein stability index. Entry: SSSVETGPSVSEPPGLPRVSAYVD [SPATS1]
4.77

// returns reported protein stability index for input KSNQPKSLEDLIFESLPENASHKL [ATE1]
4.28

Reference for the values: the supplement of paper PMC10567573
